# Tested on: Saccharomyces cerevisiae
# assayComment: MIC on mass basis (Example V procedure)
# Assay type: cell-based
# measurementSetup: Saccharomyces cerevisiae
Entries and their measured MIC follow.
assayEndpoint: MIC (µg/mL)

CC(C)(C)c1ccc(C(C)(C)C)c(O)c1 ... 62.5
CC(C)(C)c1cc(C(C)(C)C)c(O)cc1O ... 15.6
CC(C)(C)c1cc(C(C)(C)C)c(O)c(C(=O)O)c1O [3,5-di-tert-butyl-2,6-dihydroxbenzoic] ... 500
CC(C)(C)c1cc(O)cc(C(C)(C)C)c1 ... 62.5

---

# System: Streptococcus pyogenes
# assayComment: MIC on mass basis (Example V procedure)
# Format: cell-based
# measurementSetup: Table 12, Streptococcus pyogenes; read-out: MIC
# Protocol: The essential procedure of Example I was followed with a series of phenolic compounds, with the exception that the test method was conducted on a mass (μg/ml) basis rather than a molecular (mol/ml) basis of the foregoing tests, since the long established phenol-coeffecient test is on a mass rather than molecular basis. […]
assayEndpoint: MIC (µg/mL)

CCCCc1cc(C(C)(C)C)c(O)c(C(C)(C)C)c1 ... 5000
Cc1cc(C(C)(C)C)c(O)c(C(C)(C)C)c1 ... 1000
CCc1cc(C(C)(C)C)c(O)c(C(C)(C)C)c1 ... 1000

---

# Test system: Staphylococcus aureus
# assayComment: MIC on mass basis (Example V procedure)
# Type: cell-based
# measurementSetup: Staphylococcus aureus, Table 12, Staphylococcus aureus; read-out: MIC
assayEndpoint: MIC

CCc1cc(C(C)(C)C)c(O)c(C(C)(C)C)c1 ... 5000 µg/mL
CCCCc1cc(C(C)(C)C)c(O)c(C(C)(C)C)c1 ... > 5000 µg/mL
CCCCCCCCc1cc(C(C)(C)C)c(O)c(C(C)(C)C)c1 ... > 5000 µg/mL
CCCCCCCCCCc1cc(C(C)(C)C)c(O)c(C(C)(C)C)c1 ... > 5000 µg/mL
CCCCCCc1cc(C(C)(C)C)c(O)c(C(C)(C)C)c1 ... > 5000 µg/mL
Cc1cc(C(C)(C)C)c(O)c(C(C)(C)C)c1 ... > 5000 µg/mL

---

# Test system: Streptococcus pyogenes
# assayComment: MIC on mass basis (Example V procedure)
# Assay type: cell-based
# measurementSetup: Table 12, Streptococcus pyogenes; read-out: MIC
Entries and their measured MIC follow.
assayEndpoint: MIC

CCCCCCCCCCc1cc(C(C)(C)C)c(O)c(C(C)(C)C)c1 [C10, 2,6-di-tert-4-decylphenol] ... > 5000 µg/mL
CCCCCCc1cc(C(C)(C)C)c(O)c(C(C)(C)C)c1 [C6, 2,6-di-tert-4-hexylphenol] ... > 5000 µg/mL
CCCCCCCCc1cc(C(C)(C)C)c(O)c(C(C)(C)C)c1 [C8, 2,6-di-tert-4-octylphenol] ... > 5000 µg/mL
